Experiment: Compound was evaluated for inhibition against Phospholipase A2 of Croatalus adamanteus
experimental-readout: IC50

Inquiry: Value lookup for IC50; key = "O=C(/C=C\N(O)C1CCCCC1)c1ccc(F)cc1"
Reply text: > 1000 µM

Inquiry: Value lookup for IC50; key = "CON(/C=C\C(=O)c1ccc(F)cc1)Cc1ccccc1"
Reply text: > 1000 µM

Please find the next molecule below.
Inquiry: Value lookup for IC50; key = "CC(=O)ON(C=CC(=O)c1ccc(F)cc1)Cc1ccccc1"
Reply text: > 1000 µM
